Cited source for all entries: patent US20130267551A1

biological target: Adrenergic α1D (Homo sapiens); assay: competitive radioligand binding, Adrenergic α1D; settings: compound concentration of 1 μM; read-out: radio-labelled ligand displacement, Adrenergic α1D
Sequence (P25100 whole entry): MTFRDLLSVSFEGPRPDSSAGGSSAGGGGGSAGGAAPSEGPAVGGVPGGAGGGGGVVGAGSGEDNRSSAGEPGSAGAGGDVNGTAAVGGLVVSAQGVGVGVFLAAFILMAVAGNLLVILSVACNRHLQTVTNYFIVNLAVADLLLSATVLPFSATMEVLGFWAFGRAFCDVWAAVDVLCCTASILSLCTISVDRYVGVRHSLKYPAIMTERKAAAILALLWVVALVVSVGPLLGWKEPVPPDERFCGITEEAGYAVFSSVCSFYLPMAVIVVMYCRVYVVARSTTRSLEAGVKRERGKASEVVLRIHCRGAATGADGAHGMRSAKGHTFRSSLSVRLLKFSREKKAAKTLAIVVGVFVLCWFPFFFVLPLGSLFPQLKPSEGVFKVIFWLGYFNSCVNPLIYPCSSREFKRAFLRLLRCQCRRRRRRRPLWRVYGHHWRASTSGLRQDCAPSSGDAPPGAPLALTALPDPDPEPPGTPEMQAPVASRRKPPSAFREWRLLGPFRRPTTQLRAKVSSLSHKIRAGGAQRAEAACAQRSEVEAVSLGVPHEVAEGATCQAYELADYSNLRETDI
Counter-ions that a name gives are not always drawn.
Assign T whenever inhibition at 1 µM does not fall below 40%; assign F whenever it does.

Ask: State whether the measured inhibition at 1 µM reaches 40%, counting equality as reaching it, for Cc1cc2c(s1)c1c(n2-c2cccc(F)c2)CCN(C)C1 [2.4(3)•HCl]
Reply: F

Ask: State whether the measured inhibition at 1 µM reaches 40%, counting equality as reaching it, for Cc1cc2c3c(n(CCc4ccccc4)c2s1)CCN(C)C3.Cl [3.6(1)•HCl]
Reply: T

Ask: State whether the measured inhibition at 1 µM reaches 40%, counting equality as reaching it, for CC1Cc2c(c3sc(Cl)cc3n2C#Cc2cccc(F)c2)C(C)N1C (stereo not drawn) [2.10(3)•HCl]
Reply: F

Ask: State whether the measured inhibition at 1 µM reaches 40%, counting equality as reaching it, for Cc1cc2c(s1)c1c(n2CCc2ccccc2)CCN(C)C1.Cl [2.6(1)•HCl]
Reply: T

Ask: State whether the measured inhibition at 1 µM reaches 40%, counting equality as reaching it, for Cc1ccc(Cn2c3c(c4sc(Cl)cc42)C(C)N(C)C(C)C3)cn1 (stereo not drawn) [2.5(4)•HCl]
Reply: F

Ask: State whether the measured inhibition at 1 µM reaches 40%, counting equality as reaching it, for Cc1ccc(CCCn2c3c(c4scc(Cl)c42)CN(C)CC3)cn1 [2.12(5)•HCl]
Reply: T

Ask: State whether the measured inhibition at 1 µM reaches 40%, counting equality as reaching it, for Cc1cc2c(s1)c1c(n2Cc2ccccc2)CCN(C)C1.Cl [2.5(1)•HCl]
Reply: F

Ask: State whether the measured inhibition at 1 µM reaches 40%, counting equality as reaching it, for Cc1cc2c3c(n(Cc4ccccc4)c2s1)CCN(C)C3.Cl [3.5(1)•HCl]
Reply: T

Ask: State whether the measured inhibition at 1 µM reaches 40%, counting equality as reaching it, for Cc1cc2c3c(n(Cc4ccccc4)c2s1)CC1CCC3N1C (stereo not drawn) [3.13(1)•HCl]
Reply: T

###

biological target: UniProt P14416; assay: competitive radioligand binding, Dopaminergic D2S; conditions: compound concentration of 1 μM
Sequence (P14416 1-414 isoform P14416-2): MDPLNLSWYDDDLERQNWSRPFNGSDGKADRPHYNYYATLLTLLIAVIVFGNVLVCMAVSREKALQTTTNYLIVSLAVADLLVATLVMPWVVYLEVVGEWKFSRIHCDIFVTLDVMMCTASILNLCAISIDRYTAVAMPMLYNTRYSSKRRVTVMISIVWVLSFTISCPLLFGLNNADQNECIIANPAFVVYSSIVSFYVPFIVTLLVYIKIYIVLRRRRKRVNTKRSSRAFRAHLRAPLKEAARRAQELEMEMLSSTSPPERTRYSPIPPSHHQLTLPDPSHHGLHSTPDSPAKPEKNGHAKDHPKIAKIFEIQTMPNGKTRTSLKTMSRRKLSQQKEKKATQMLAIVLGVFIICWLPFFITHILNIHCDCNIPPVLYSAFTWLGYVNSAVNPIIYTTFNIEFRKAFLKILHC
Structures can show the parent of a compound that is named as a salt.
endpoint_name: radio-labelled ligand displacement, Dopaminergic D2S (%)
Write it as a number; the unit % goes unstated.

Ask: GET /values?readout=radio-labelled ligand displacement, Dopaminergic D2S&item= CN1CCc2c(c3cc(Cl)sc3n2CCCc2cccc(F)c2)C1 [3.12(6)•HCl]
Reply: 77

Ask: GET /values?readout=radio-labelled ligand displacement, Dopaminergic D2S&item= Cc1cc2c3c(n(CC(O)c4ccccc4)c2s1)CCN(C)C3.Cl (stereo not drawn) [3.7(1)•HCl]
Reply: 29

Ask: GET /values?readout=radio-labelled ligand displacement, Dopaminergic D2S&item= Cc1csc2c1c1c(n2CCCc2ccccc2)CCN(C)C1 [3.12(1)•HCl]
Reply: 89

Ask: GET /values?readout=radio-labelled ligand displacement, Dopaminergic D2S&item= Cc1ccc(CCCn2c3c(c4c(Cl)csc42)CN(C)CC3)cc1 [3.12(5)•HCl]
Reply: 29

Ask: GET /values?readout=radio-labelled ligand displacement, Dopaminergic D2S&item= Cc1cc2c3c(n(CCc4ccc(Cl)cc4)c2s1)C(C)CN(C)C3 (stereo not drawn) [3.6(4)•HCl]
Reply: 72

Ask: GET /values?readout=radio-labelled ligand displacement, Dopaminergic D2S&item= Cc1ccc(C=CCn2c3c(c4cc(C)sc42)CN(C)CC3)cc1 [3.11(2)•HCl]
Reply: 61
